- assay.name: qHTS Assay for Identifying Gametocytocidal Compounds (AID 743244);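 note: % is set by controls: 0 for no effect and ±100 for the full control effect; actives lower the fluorescent signal which means gametocytes are killed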
- measurement.parameters: P. falciparum 3D7 stage III-V gametocytes, alamarBlue, 72 h; hits give low values
Results filed as inconclusive are left out.
metric.name: max response (%)
Report the value in % with no unit label.

Reference set, count: 5
compound: CN1C(=O)OC(C)(C)C1=O
metric.name: max response
quantitative.readout: 8.47

compound: CCCC(=O)Nc1c(I)cc(I)c(CC(CC)C(=O)O)c1I (stereo unspecified)
metric.name: max response
quantitative.readout: 15

compound: CCCCC[C@H](O)/C=C/[C@H]1[C@H](O)CC(=O)[C@@H]1CCCCCCC(=O)O
metric.name: max response
quantitative.readout: -10.5

compound: OC[C@H]1O[C@@H](O[C@H]2[C@H](O)[C@@H](O)[C@H](O)O[C@@H]2CO)[C@H](O)[C@@H](O)[C@@H]1O
metric.name: max response
quantitative.readout: 2.58

compound: C=O
metric.name: max response
quantitative.readout: 20.4

Prompt: Requested field: max response. Item: [O]=[Bi][O][Bi]=[O]
Completion: 11.3

Prompt: Field entry: CN(Cc1ccccc1)Cc1ccccc1
Completion: 1.68

---

- System: CP325
- assay.name: qHTS profiling for inhibitors of Plasmodium falciparum proliferation (AID 504749); note: nearly all actives have a fitted effect of over 60% in size
- measurement.parameters: P. falciparum in erythrocytes, SYBR Green DNA, 72 h; series mostly up to 28.7 µM
Inconclusive results are not listed. The source made the active and inactive calls. The call rests on the fitted dose curve; in most records, active means well fitted inhibition curve with a large enough effect; inconclusive means small, poorly fitted or top-dose-only effect; inactive means flat fitted curve, though single readings scatter.
Hi there, use one of these labels in your reply, thanks! label 1 (active), label 0 (inactive)

compound: NCCN
class.label: label 0
--
compound: CC(=O)Oc1cccc(C(=O)O)c1OC(C)=O
class.label: label 0

Prompt: I would be grateful if you could indicate the recorded call for O=C(O)C1=C(CSc2nnnn2CS(=O)(=O)O)CS[C@@H]2[C@H](NC(=O)[C@H](O)c3ccccc3)C(=O)N12 .
Completion: label 0

Prompt: Input OC/C=C/c1ccccc1
Completion: label 0

Prompt: Also need CN=C1C=CC(=C(c2ccc(N(C)C)cc2)c2ccc(N(C)C)cc2)C=C1 , thanks.
Completion: label 1

Prompt: Follow-up entry: OC1OC[C@@H](O)[C@H](O)[C@@H]1O (stereo not given in full)
Completion: label 0

Prompt: Likewise for CCOC(=O)C1=C(COCCN)NC(C)=C(C(=O)OC)C1c1ccccc1Cl (stereo not given) ?
Completion: label 0

Prompt: Same lookup for Cc1c(C)c2c(c(C)c1OC(=O)CCC(=O)O)CC[C@@](C)(CCC[C@H](C)CCC[C@H](C)CCCC(C)C)O2 , please.
Completion: label 0

Prompt: Likewise for CS(=O)(=O)OCC(O)C(O)COS(C)(=O)=O (stereo not given) ?
Completion: label 0

Prompt: Follow-up entry: CC12CCC(C1)C(C)(C)C2=O (stereo not given)
Completion: label 0

---

- Tested on: CP291
- assay.name: qHTS profiling for inhibitors of Plasmodium falciparum proliferation (AID 504749); note: nearly all actives have a fitted effect of over 60% in size
- measurement.parameters: P. falciparum in erythrocytes, SYBR Green DNA, 72 h; series mostly up to 28.7 µM
- Experimental: NIH National Institute of Allergy and Infectious Diseases [NIAID] NIH Chemical Genomics Center [NCGC] […] Because mature erythrocytes lack DNA, only Plasmodium-derived DNA is detected. NCGC Assay Protocol Summary: The SYBR Green viability assay was adapted from a method described previously (Plouffe et al., 2008). […] The following morning, fluorescence intensity at 485(14) nm excitation and 535(25) nm emission wavelengths was measured on an EnVision (Perkin Elmer) plate reader. […]
Records with an inconclusive call do not appear. The source made the active and inactive calls. Calls follow the shape of the dose curve; as a rule, active = well fitted inhibition curve with a large enough effect; inconclusive = small, poorly fitted or top-dose-only effect; inactive = flat fitted curve, though single readings scatter.
// allowed return values: active, inactive

A selection of reference data follows.
molecule: OCC1(CO)COC(C(Cl)(Cl)Cl)OC1
system.under.test: CP291
class.label: inactive
--
molecule: CCCCC[C@H](O)/C=C/[C@@H]1[C@H]2C/C(=C/CCCC(=O)O)O[C@H]2C[C@H]1O
system.under.test: CP291
class.label: inactive

Prompt: Test call, this molecule: COc1ccc(/C=C/C(=O)OCCC(C)C)cc1
Completion: inactive

Prompt: Cool, now CO/N=C(\C(=O)N[C@@H]1C(=O)N2C(C(=O)[O-])=C(C[n+]3cccc4c3CCC4)CS[C@H]12)c1csc(N)n1
Completion: inactive

Prompt: Another molecule to look at: COC1=C(OC)C(=O)C(C/C=C(\C)CC/C=C(\C)CC/C=C(\C)CC/C=C(\C)CC/C=C(\C)CC/C=C(\C)CC/C=C(\C)CC/C=C(\C)CC/C=C(\C)CCC=C(C)C)=C(C)C1=O
Completion: inactive

Prompt: Can you check CCCCC[C@H](O)/C=C/[C@H]1[C@H](O)CC(=O)[C@@H]1C/C=C\CCCC(=O)O next?
Completion: inactive

Prompt: And the next one, CC(CNC(=O)c1cccnc1)NC(=O)c1cccnc1 (stereo not drawn) ?
Completion: inactive

---

- Tested on: CP194
- assay.name: qHTS profiling for inhibitors of Plasmodium falciparum proliferation (AID 504749); note: nearly all actives have a fitted effect of over 60% in size
- measurement.parameters: P. falciparum in erythrocytes, SYBR Green DNA, 72 h; series mostly up to 28.7 µM
Inconclusive results are not listed. Calls of active or inactive are those of the source. Calls come from the whole dose curve; as a rule, active = well fitted inhibition curve with a large enough effect; inconclusive = small, poorly fitted or top-dose-only effect; inactive = flat fitted curve, though single readings scatter.
Returns: one label drawn from active, inactive

molecule: CCCCCCCCCCCCCCCCCC(=O)OC[C@@H](O)[C@H]1OC[C@H](O)[C@H]1O
system.under.test: CP194
class.label: inactive

Prompt: Dear all, I need the recorded test outcome for Cc1nc(NS(=O)(=O)c2ccc(N)cc2)nc(C)c1Br , thank you.
Completion: inactive

---

- Tested on: CP217
- assay.name: qHTS profiling for inhibitors of Plasmodium falciparum proliferation (AID 504749); note: nearly all actives have a fitted effect of over 60% in size; note: potency is the fitted concentration of half-maximal effect
- measurement.parameters: P. falciparum in erythrocytes, SYBR Green DNA, 72 h; series mostly up to 28.7 µM
Records with an inconclusive call do not appear. The source made the active and inactive calls. Calls follow the shape of the dose curve; as a rule, active = well fitted inhibition curve with a large enough effect; inconclusive = small, poorly fitted or top-dose-only effect; inactive = flat fitted curve, though single readings scatter.
metric.name: Potency

Past entries and their recorded results:
compound: CO/N=C(/C(=O)N[C@@H]1C(=O)N2C(C(=O)O)=C(COC(N)=O)CS[C@H]12)c1ccco1
Potency: inactive
//
compound: CC(C)(C)c1ccc2c(S(=O)(=O)O)c(C(C)(C)C)ccc2c1
Potency: inactive
//
compound: CCCCC/C=C\C/C=C\C/C=C\CCCCC(=O)O
Potency: inactive
//
compound: Cc1cc(C(=O)NCCc2ccc(S(=O)(=O)NC(=O)NN3CCCCCC3)cc2)no1
Potency: inactive
//
compound: NC(=S)N=Nc1ccc(NN=C(N)N)cc1
Potency: 12.6 µM (active)

Prompt: Form field: reported Potency of CC12CCC(C1)C(C)(C)C2=O (stereo unspecified)
Completion: inactive

---

- system.under.test: Cytochrome P450 2C9 (Homo sapiens) (UniProt P11712)
- Sequence (P11712 whole entry, looked up): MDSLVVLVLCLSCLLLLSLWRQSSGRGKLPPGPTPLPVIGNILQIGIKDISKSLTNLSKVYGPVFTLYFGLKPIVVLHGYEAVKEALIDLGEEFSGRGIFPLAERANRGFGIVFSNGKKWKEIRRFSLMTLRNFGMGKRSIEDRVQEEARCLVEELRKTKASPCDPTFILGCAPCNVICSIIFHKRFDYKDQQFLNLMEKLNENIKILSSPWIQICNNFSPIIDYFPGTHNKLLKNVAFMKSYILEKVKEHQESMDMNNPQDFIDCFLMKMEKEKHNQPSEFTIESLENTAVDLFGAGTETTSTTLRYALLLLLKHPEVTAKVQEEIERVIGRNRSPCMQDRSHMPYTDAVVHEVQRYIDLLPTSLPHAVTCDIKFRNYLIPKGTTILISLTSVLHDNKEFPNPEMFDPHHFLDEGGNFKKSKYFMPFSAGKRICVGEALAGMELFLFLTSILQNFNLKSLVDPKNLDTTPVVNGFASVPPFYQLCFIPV
- assay.name: qHTS for inhibitors of CYP2C9 against the NCATS DSHEA and TCM libraries (AID 1919973);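 note: luminogenic pro-luciferin CYP2C9 substrate turned into luciferin with NADPH regeneration; % is set by controls: 0 for no effect and ±100 for the full control effect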
- measurement.parameters: recombinant CYP2C9 enzyme activity, luminescence; series mostly up to 34.1 µM
Records with an inconclusive call do not appear. Calls of active or inactive are those of the source. Calls follow the shape of the dose curve; as a rule, active = well fitted inhibition curve with a large enough effect; inconclusive = small, poorly fitted or top-dose-only effect; inactive = no such curve, though single readings can be large or run the other way.
metric.name: activity change, negative = inhibition

Answered cases to consult:
compound: CC(C)=CCC/C(C)=C/C=C/C(C)=C/C=C/C(C)=C/C=C/C=C(C)/C=C/C=C(C)/C=C/C=C(\C)CCC=C(C)C
result: inactive

compound: CCCCCCCCCCCC(=O)OCC(O)CO (stereo unspecified)
result: inactive

compound: O=C(O)/C=C/c1ccccc1
result: inactive

compound: CC1=CCC2CC1C2(C)C (stereo unspecified)
result: inactive

compound: CC/C=C\C/C=C\C/C=C\C/C=C\C/C=C\CCCC(=O)O
result: inactive

From here, focus on the item given below.
Prompt: What is its activity change, negative = inhibition for Cytochrome P450 2C9 (Homo sapiens) (UniProt P11712)? Entry: CCCCC/C=C\C/C=C\C/C=C\CCCCC(=O)O
Completion: -2.07% [at 4.27 µM] (inactive)

---

- assay.name: Drug repurposing screens with cells derived from glioblastoma tumor samples (AID 1345199); note: % is set by controls: 0 for no effect and ±100 for the full control effect; nearly all actives have a fitted effect of over 40% in size
- measurement.parameters: GBM patient neurospheres viability, ATP luminescence, 48 h; at 46 µM (top of the series); tumour line A
Results filed as inconclusive are left out.
Could you please classify the records by activity, negative = cell killing using these ranges: low (below -30%), medium (-30% to below -20%), high (-20% or more)

compound: CCCC(=O)Nc1c(I)cc(I)c(CC(CC)C(=O)O)c1I (configuration not stated)
class.label: high
--
compound: C[Si](C)(C)O[Si](C)(C)C
class.label: high
--
compound: O=[N+]([O-])O[C@@H]1CO[C@H]2[C@@H]1OC[C@@H]2O
class.label: low
--
compound: CC/C=C\C/C=C\C/C=C\CCCCCCCC(=O)O
class.label: high
--
compound: Cc1cc(C(=O)NCCc2ccc(S(=O)(=O)NC(=O)NN3CCCCCC3)cc2)no1
class.label: low

Prompt: Note: place this compound into its band. Item: CCC(C)[C@@H](N)C(=O)O (some centres not stated)
Completion: high

Prompt: And then NCCCC[C@H](N)C(=O)O , what is it?
Completion: high
